System: HS 578T breast
ASSAY_TEXT: NCI tumour cell line growth inhibition, 48 h
Below, each entry is listed alongside its reported GI50.
REPORTED_PROPERTY: GI50

- O=C1/C(=C\c2ccc([N+](=O)[O-])cc2)CS(=O)(=O)C/C1=C/c1ccc([N+](=O)[O-])cc1: 0.447 µM
- N#Cc1ccc(N2Cc3cc(Cl)ccc3OC3=C2C(=O)N(Cc2ccc(F)cc2)C3=O)cc1: 1.02 µM
- O=Cc1c[nH]c2ccc(-c3csc4ccccc34)cc12: 2.3 µM
- NS(=O)(=O)c1cccc(-c2cc3ccncc3cc2OCc2ccccc2)c1: 4.2 µM
- Cc1ccc(C2NC(=S)N3C(c4ccc(C)cc4)NC(=S)N23)cc1 (stereo unspecified): 4.74 µM
- CCOP(=O)(CCN1CCN(CCCCCOc2cc3c(cc2OC)C(=O)N2CCC[C@H]2C=N3)CC1)OCC: 3.54 µM
- COc1ccc(C2=NNC(c3cc(Cc4ccc(O)c(C5CC(c6ccc(OC)cc6)=NN5)c4)ccc3O)C2)cc1 (stereo unspecified): 5.58 µM
- CCc1ccc(Oc2nccc(-c3c(-c4ccc(F)cc4)ncn3C3CCNCC3)n2)cc1: 7.01 µM
- Cc1ccc2c(n1)C(=O)C(Cl)=C(Nc1ccc(N3CCN(C)CC3)cc1)C2=O: 2.47 µM
- O=[N+]([O-])c1ccc(N/N=C/c2ccccc2O)nc1: > 100 µM
- O=c1[nH]cc(CO)c(=O)[nH]1: > 100 µM
- C=C1C(=O)O[C@H]2[C@H]1CC/C(COC(=O)c1cccc3ccccc13)=C\CC[C@@]1(C)O[C@@H]21: 1.98 µM
- CCOC(=O)c1c(C(F)(F)F)n([O-])c2ccc(Cl)cc2[n+]1=O: 2.17 µM
- C[C@@H](Oc1cc(-c2cnn(C3CC4(CNC4)C3)c2)cnc1N)c1c(Cl)ccc(F)c1Cl: 3.87 µM
- O=C(N/N=C/c1ccncc1)c1ccc(C(F)(F)F)nc1Nc1cccc(C(F)(F)F)c1: 2.02 µM
- COc1ccc(Oc2nc(Nc3ccc(N4CCOCC4)cc3)ncc2NC(=O)Nc2cc(OC)cc(OC)c2)cc1: 8 µM

* * *

System: HCC-2998 colon
ASSAY_TEXT: NCI tumour cell line growth inhibition, 48 h
REPORTED_PROPERTY: TGI (µM)

* O=c1c(-c2ccc3c(c2)OCO3)coc2c(CO)c(O)ccc12 | 3.89
* Cc1cc(O)c2cc3c(O)c(O)ccc3cc2c1 | 16.4
* CCc1cccc(C(C)C)c1NC1=C([n+]2ccc(C)cc2)C(=O)c2ccccc2C1=O | 20.9
* C[C@@H](Oc1cc(-c2cnn(C3CC4(CNC4)C3)c2)cnc1N)c1c(Cl)ccc(F)c1Cl | 19.7
* O=C1/C(=C/c2ccc3c(c2)OCO3)Sc2scc(-c3ccc(O)c(O)c3)[n+]21 | 3.64
* Cc1ccc2c(n1)C(=O)C(Cl)=C(Nc1ccc(N3CCN(C)CC3)cc1)C2=O | 17.5
* CCOC(=O)C1=C(C)NC(C)=C(C(=O)OCC)C1c1cc(Br)c(O)c(OC)c1 | 10.8
* CCCCCCCCCCCCNC(=O)[C@H]1CSC(c2cc(Br)cs2)N1 (stereo partly specified) | 9.41
* C=C(CS(=O)(=O)c1ccccc1)C(=O)OCC | 35.1
* O=C1CC(NC2CC(=O)c3c(Br)sc(Br)c32)c2c(Br)sc(Br)c21 (stereo unspecified) | 30.8
* C=C1C(=O)O[C@H]2[C@H]1CC/C(COC(=O)c1cccc3ccccc13)=C\CC[C@@]1(C)O[C@@H]21 | 3.76
* O=C1c2ccccc2-c2c1c1c(O)cccc1n2CCCc1ccccc1 | 6.01
